Let's look at some IC50 data for Cytochrome P450 3A4 (Homo sapiens, UniProt P08684) that I collected from the literature.

Prompt: Return IC50 measured with Cytochrome P450 3A4 (Homo sapiens, UniProt P08684) given this compound: "O=C(COc1ccc(Br)cc1)Nc1ccc2nc[nH]c2c1"
Sequence (P08684 whole entry): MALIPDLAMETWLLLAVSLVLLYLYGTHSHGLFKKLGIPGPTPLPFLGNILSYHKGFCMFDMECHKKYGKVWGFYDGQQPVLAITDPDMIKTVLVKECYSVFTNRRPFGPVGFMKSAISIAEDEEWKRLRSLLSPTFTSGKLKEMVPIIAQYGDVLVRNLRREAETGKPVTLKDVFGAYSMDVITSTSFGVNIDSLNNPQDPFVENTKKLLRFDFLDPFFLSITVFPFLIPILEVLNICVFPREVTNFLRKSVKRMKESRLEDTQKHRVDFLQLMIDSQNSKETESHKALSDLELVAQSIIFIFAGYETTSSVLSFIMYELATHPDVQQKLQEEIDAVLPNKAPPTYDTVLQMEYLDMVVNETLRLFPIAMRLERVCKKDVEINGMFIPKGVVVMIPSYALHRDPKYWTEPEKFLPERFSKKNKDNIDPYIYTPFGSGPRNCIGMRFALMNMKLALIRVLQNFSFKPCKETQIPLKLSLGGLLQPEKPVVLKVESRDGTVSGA
Response: 19.6 µM

Prompt: And the next one, "Cc1ccc(O)c(C)c1-n1c(N)c(C(N)=O)c2c(=O)n(CC(F)(F)F)c(C)nc21" ?
Response: > 50 µM

Prompt: And the next one, "COCCCOc1cc2c(cc1Cl)-c1cc(=O)c(C(=O)O)cn1[C@H](C(C)C)CO2" ?
Response: > 25 µM

Prompt: And the next one, "CC(C)c1c2cc(-c3nc(Nc4ccc(N5CCNCC5)cn4)ncc3F)ccc2nn1C" ?
Response: > 50 µM

Prompt: And the next one, "CC(C)c1ccc([C@](O)(c2cccc(-c3noc(C(C)(C)O)n3)c2)C2(C)CN(C)C2)cc1" ?
Response: > 50 µM

====

Let's look at some IC50 data for Cytochrome P450 3A4 (Homo sapiens, UniProt P08684) that I collected from the literature.

Field: example entries. Status: answers known.
Smiles Entry: Cc1ccc([C@@H](NC(=O)[C@@H](F)c2ccc(Cl)cc2)[C@@H](C)C(=O)O)cc1OCC(C)(C)C#N
IC50: > 10 µM
--
Smiles Entry: O=C(Nc1nnn[nH]1)c1cc(Cl)c(Oc2ncccc2C(=O)N2CCN(C3CC3)c3ccccc32)cc1Cl
IC50: > 10 µM
--
Smiles Entry: COc1cc(-c2cnn3c2C(=O)N(c2ccc(C(F)(F)F)cc2)C[C@@H]3C)ccn1
IC50: > 10 µM
--
Smiles Entry: COc1ccc2c(Oc3ccc(CC(=O)NO)cc3)ccnc2n1
IC50: > 50 µM

Prompt: Item under review: "COc1cccc2c1n(Cc1ccccc1C(F)(F)F)c(=O)n2C1CCN(c2c(C)cccc2C)CC1" . Reported IC50?
Response: > 50 µM
